- Tested on: A549
- ASSAY: Cytotoxicity against human A549 cells after 44 hrs by MTT assay
- Type: functional
- TEST SETTINGS: A549, 44 h, read-out: ED50 (the source's name)
Classify: class 1 when EC50 is strictly less than 800 nM; class 0 when EC50 is not.

The following compounds have reported results that may help.
COc1cc(/C=C/c2cc3c(c(OC)c2)O[C@]2(C)C[C@@H](O)[C@@H](O)C(C)(C)[C@H]2C3)cc(O)c1/C=C/c1ccc([N+](=O)[O-])cc1 | class 1
COc1cc(/C=C/c2cc3c(c(OC)c2)O[C@]2(C)CC[C@@H](O)C(C)(C)[C@H]2C3)cc(O)c1/C=C/c1ccc(N)cc1 | class 0
COc1cc(/C=C/c2cc3c(c(OC)c2)O[C@]2(C)C[C@@H](O)[C@@H](O)C(C)(C)[C@H]2C3)cc(O)c1/C=C/c1ccc(N)cc1 | class 0
COc1ccc(/C=C/c2cc(O)c(/C=C/c3ccc([N+](=O)[O-])cc3)c(OC)c2)cc1OC | class 0

Input: Confirm or reject: EC50 of "COc1ccc(/C=C/c2cc(O)c(/C=C/c3ccc(N)cc3)c(OC)c2)cc1OC" lies strictly below 800 nM
Output: class 0

Input: Confirm or reject: EC50 of "COc1cc(/C=C/c2cc3c(c(OC)c2)O[C@]2(C)CC[C@@H](O)C(C)(C)[C@H]2C3)cc(O)c1/C=C/c1ccc([N+](=O)[O-])cc1" lies strictly below 800 nM
Output: class 0
